Where these numbers come from: patent US8530461B2

IC50 values for the compounds below.
- Subject Of Test: human ACC2 (Homo sapiens)
- Construct: made in house; host or cells: insect cells (baculoviral expression system)
- Assay Overview: ACC2 assay, spectrophotometric 384 well assay (NADH-linked, coupled lactate dehydrogenase/pyruvate kinase)
- Assay type: biochemical
- Particulars: ACC2 assay; human ACC2 construct lacking 128 N-terminal amino acids; 25° C., 340 nm, 15 minutes; read-out: IC50
Write the numeric value and append its unit.

- Compound: "CC(=O)N[C@@H](C)c1ccc(N2CC(Oc3ccnc(OCC4CC4(F)F)c3)C2)cc1 (some centres unmarked)"
  IC50: "0.1 µM"
- Compound: "CCOc1ccc(OC2CN(c3ccc([C@H](C)NC(=O)N(C)C(C)C)cc3)C2)cc1"
  IC50: "3.1 µM"

Enquiry: Please report the recorded IC50 for "CCOc1ccc(OC2CN(c3ccc([C@H](C)NC(=O)c4scnc4C)cc3)C2)cc1" .
Return: 0.78 µM

Enquiry: Now the same for "CCOc1ccc(OC2CN(c3ccc([C@H](C)NC(=O)Nc4ccncn4)cc3)C2)cc1"
Return: 3.41 µM

Enquiry: Now the same for "CCOc1ccc(OC2CN(c3ccc([C@H](C)NC(=O)c4cnn(C)c4)cc3)C2)cc1"
Return: 0.48 µM

Enquiry: Now the same for "CCOc1ccc(OC2CN(c3ccc([C@H](C)NC(=O)c4ccno4)cc3)C2)cc1"
Return: 0.29 µM

---

- Subject Of Test: human ACC2 (Homo sapiens, UniProt O00763)
- Construct: made in house; host or cells: insect cells (baculoviral expression system)
- Sequence (O00763 129-2458 limits assumed): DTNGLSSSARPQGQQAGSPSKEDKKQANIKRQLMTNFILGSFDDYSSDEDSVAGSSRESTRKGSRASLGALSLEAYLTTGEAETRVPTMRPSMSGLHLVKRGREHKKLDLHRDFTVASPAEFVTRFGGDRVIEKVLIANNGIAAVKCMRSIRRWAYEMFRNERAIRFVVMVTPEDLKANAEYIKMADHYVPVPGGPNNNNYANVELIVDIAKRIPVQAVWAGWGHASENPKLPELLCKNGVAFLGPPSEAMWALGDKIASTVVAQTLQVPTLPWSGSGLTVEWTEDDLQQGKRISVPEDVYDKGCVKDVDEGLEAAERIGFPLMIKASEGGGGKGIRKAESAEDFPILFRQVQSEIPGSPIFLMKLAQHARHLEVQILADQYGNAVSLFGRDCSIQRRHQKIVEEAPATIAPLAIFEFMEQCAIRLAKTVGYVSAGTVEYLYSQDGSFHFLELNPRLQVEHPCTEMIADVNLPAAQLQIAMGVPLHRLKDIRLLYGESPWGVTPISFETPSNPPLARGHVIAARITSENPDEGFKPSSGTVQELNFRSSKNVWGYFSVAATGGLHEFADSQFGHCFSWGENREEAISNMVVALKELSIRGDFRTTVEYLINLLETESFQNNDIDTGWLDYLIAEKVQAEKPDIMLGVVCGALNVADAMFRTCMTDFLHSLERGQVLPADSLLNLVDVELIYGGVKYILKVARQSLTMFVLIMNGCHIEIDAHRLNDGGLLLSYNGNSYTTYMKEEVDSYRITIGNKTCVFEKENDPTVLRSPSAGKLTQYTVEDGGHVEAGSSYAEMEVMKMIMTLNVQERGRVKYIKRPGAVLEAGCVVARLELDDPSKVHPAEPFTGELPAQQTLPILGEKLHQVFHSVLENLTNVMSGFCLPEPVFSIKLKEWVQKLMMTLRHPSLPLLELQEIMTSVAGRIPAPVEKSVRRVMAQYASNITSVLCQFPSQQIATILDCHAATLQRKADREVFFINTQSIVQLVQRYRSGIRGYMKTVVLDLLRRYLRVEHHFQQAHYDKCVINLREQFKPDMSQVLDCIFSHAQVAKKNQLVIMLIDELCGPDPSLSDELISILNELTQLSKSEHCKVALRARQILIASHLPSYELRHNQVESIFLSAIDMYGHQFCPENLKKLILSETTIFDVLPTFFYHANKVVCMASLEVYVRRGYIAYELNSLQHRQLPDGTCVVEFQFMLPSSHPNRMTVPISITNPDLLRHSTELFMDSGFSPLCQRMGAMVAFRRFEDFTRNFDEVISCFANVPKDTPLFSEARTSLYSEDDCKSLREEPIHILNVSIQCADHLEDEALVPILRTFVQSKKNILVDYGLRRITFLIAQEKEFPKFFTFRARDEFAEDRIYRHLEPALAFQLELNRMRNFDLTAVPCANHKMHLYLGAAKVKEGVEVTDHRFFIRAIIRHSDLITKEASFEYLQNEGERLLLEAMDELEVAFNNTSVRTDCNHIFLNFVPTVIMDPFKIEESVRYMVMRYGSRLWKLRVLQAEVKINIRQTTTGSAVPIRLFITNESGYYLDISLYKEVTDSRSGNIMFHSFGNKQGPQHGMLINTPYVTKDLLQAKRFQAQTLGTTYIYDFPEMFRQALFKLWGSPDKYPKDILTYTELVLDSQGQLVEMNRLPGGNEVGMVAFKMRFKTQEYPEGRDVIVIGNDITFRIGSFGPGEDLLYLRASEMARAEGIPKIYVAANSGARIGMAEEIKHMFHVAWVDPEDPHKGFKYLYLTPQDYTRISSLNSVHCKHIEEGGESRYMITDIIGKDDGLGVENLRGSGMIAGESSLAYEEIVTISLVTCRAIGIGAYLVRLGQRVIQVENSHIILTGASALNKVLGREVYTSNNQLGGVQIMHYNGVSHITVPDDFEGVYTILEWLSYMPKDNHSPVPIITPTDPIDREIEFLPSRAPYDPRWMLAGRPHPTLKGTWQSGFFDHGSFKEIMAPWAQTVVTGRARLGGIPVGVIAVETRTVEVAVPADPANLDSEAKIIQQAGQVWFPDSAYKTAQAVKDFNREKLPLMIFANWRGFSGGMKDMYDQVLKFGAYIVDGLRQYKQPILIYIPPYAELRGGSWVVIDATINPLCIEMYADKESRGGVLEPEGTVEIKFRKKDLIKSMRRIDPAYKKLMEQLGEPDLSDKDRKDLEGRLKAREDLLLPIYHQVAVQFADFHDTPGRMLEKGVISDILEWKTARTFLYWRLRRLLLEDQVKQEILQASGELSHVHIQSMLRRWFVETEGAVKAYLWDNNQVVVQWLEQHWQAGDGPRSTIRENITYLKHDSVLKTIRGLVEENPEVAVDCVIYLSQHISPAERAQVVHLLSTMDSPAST
- Assay Overview: ACC2 assay, spectrophotometric 384 well assay (NADH-linked, coupled lactate dehydrogenase/pyruvate kinase)
- Format: biochemical
- Particulars: ACC2 assay; human ACC2 construct lacking 128 N-terminal amino acids; 25° C., 340 nm, 15 minutes; read-out: IC50
IC50 values for the compounds below.
Response body: numeric value in nM, unit text excluded.

Worked cases, answers included:
- Item Smiles: "CC(=O)N[C@@H](C)c1ccc(N2CC(Oc3ccc(OCc4ccccc4)cc3)C2)cc1"
  Subject Of Test: "human ACC2 (Homo sapiens, UniProt O00763)"
  IC50, nM: 140
- Item Smiles: "CCOc1ccc(OC2CN(c3ccc([C@H](C)NC(=O)c4cnc(NC)nc4)cc3)C2)cc1"
  Subject Of Test: "human ACC2 (Homo sapiens, UniProt O00763)"
  IC50, nM: 3900
- Item Smiles: "CCOc1ccc(OC2CN(c3ccc([C@H](C)NC(=O)c4cnc(C)s4)cc3)C2)cc1"
  Subject Of Test: "human ACC2 (Homo sapiens, UniProt O00763)"
  IC50, nM: 1070
- Item Smiles: "CC(=O)N[C@@H](C)c1ccc(N2CC(Oc3cccc(OC4CCC4)n3)C2)cc1"
  Subject Of Test: "human ACC2 (Homo sapiens, UniProt O00763)"
  IC50, nM: 310
- Item Smiles: "CCOc1ccc(OC2CN(c3ccc([C@H](C)NC(=O)c4cn(C)cn4)cc3)C2)cc1"
  Subject Of Test: "human ACC2 (Homo sapiens, UniProt O00763)"
  IC50, nM: 2520

Enquiry: Please report the recorded IC50 for "CC(=O)N[C@@H](C)c1ccc(N2CC(Oc3cccc(OC(C)C)n3)C2)cc1" .
Return: 490

Enquiry: Now the same for "CCOc1ccc(OC2CN(c3ccc([C@H](C)NC(=O)N4CCC4)cc3)C2)cc1"
Return: 2370

Enquiry: Now the same for "CC(=O)N[C@@H](C)c1ccc(N2CC(Oc3cccc(C(F)F)n3)C2)cc1"
Return: 100

---

- Subject Of Test: human ACC2 (Homo sapiens, UniProt O00763)
- Construct: made in house; host or cells: insect cells (baculoviral expression system)
- Assay Overview: ACC2 assay, spectrophotometric 384 well assay (NADH-linked, coupled lactate dehydrogenase/pyruvate kinase)
- Assay type: biochemical
- Particulars: ACC2 assay; human ACC2 construct lacking 128 N-terminal amino acids; 25° C., 340 nm, 15 minutes; read-out: IC50
pIC50: −log10 of the molar value.
Tag: Y if measured pIC50 is not below 6, N if it is.

The following compounds have reported results that may help.
- Item Smiles: "CC(=O)N[C@@H](C)c1ccc(N2CC(Oc3cccc(N(C)C)n3)C2)cc1"
  Group Label: "Y"
- Item Smiles: "CCOc1ccc(OC2CN(c3ccc([C@H](C)NC(=O)C4(C)CCC4)cc3)C2)cc1"
  Group Label: "N"
- Item Smiles: "CCOc1ccc(OC2CN(c3ccc([C@H](C)NC(=O)CC)cc3)C2)cc1"
  Group Label: "Y"
- Item Smiles: "CCNC(=O)N[C@@H](C)c1ccc(N2CC(Oc3ccc(OCC)cc3)C2)cc1"
  Group Label: "N"
- Item Smiles: "CCOc1ccc(OC2CN(c3ccc([C@H](C)NC(=O)N(CC#N)C4CC4)cc3)C2)cc1"
  Group Label: "N"

Enquiry: Tell me whether pIC50 is at least 6 here: "CCOc1ccc(OC2CN(c3ccc([C@H](C)NC(=O)Cn4ccnc4)cc3)C2)cc1"
Return: Y

Enquiry: Now the same for "CC(=O)N[C@@H](C)c1ccc(N2CC(Oc3cccc(C4CC4)n3)C2)cc1"
Return: Y

Enquiry: Now the same for "CC(=O)N[C@@H](C)c1ccc(N2CC(Oc3cccc(C(C)(C)C)n3)C2)cc1"
Return: Y

Enquiry: Now the same for "CCOc1ccc(OC2CN(c3ccc([C@H](C)NC(=O)c4cncs4)cc3)C2)cc1"
Return: Y

---

IC50 values for the compounds below.
- Subject Of Test: human ACC2 (Homo sapiens, UniProt O00763)
- Construct: made in house; host or cells: insect cells (baculoviral expression system)
- Assay Overview: ACC2 assay, spectrophotometric 384 well assay (NADH-linked, coupled lactate dehydrogenase/pyruvate kinase)
- Assay type: biochemical
- Particulars: ACC2 assay; human ACC2 construct lacking 128 N-terminal amino acids; 25° C., 340 nm, 15 minutes; read-out: IC50
- Description: Spectrophotometric 384 Well Assay Malonyl CoA formation by acetyl CoA carboxylases is stoichometrically linked to the consumption of ATP. ACC2 activity is measured in a NADH-linked kinetic method measuring ADP generated during the ACC reaction using a coupled lactate dehydrogenase/pyruvate kinase reaction. For biological testing, a human ACC2 construct which lacks the 128 amino acids at the N-terminus for increased solubility (nt 385-6966 in Genbank entry AJ575592) is cloned. […]
Response body: numeric value in nM, unit text excluded.

Enquiry: Please report the recorded IC50 for "CC(=O)N[C@@H](C)c1ccc(N2CC(Oc3ccc(C)c(F)c3F)C2)cc1" .
Return: 1280

Enquiry: Now the same for "CC(=O)N[C@@H](C)c1ccc(N2CC(Oc3ccnc(O[C@@H]4CCOC4)c3)C2)cc1"
Return: 270

Enquiry: Now the same for "CCOc1ccc(OC2CN(c3ccc([C@H](C)NC(=O)CC(F)(F)F)cc3)C2)cc1"
Return: 410

Enquiry: Now the same for "CCOc1ccc(OC2CN(c3ccc([C@H](C)NC(=O)c4cnon4)cc3)C2)cc1"
Return: 730

Enquiry: Now the same for "CCCOc1cccc(OC2CN(c3ccc([C@H](C)NC(C)=O)cc3)C2)n1"
Return: 730

Enquiry: Now the same for "C[C@H](NC(=O)c1cn[nH]c1)c1ccc(N2CC(Oc3ccc(OCC4CC4)cc3)C2)cc1"
Return: 50

Enquiry: Now the same for COc1ccc(OC2CN(c3ccc([C@H](C)NC(C)=O)cc3)C2)cn1 [Example 10.32]
Return: 730

Enquiry: Now the same for "CCOc1ccc(OC2CN(c3ccc([C@H](C)NC(=O)C4(C)COC4)cc3)C2)cc1"
Return: 1470

Enquiry: Now the same for COc1ccc(OC2CN(c3ccc([C@H](C)NC(C)=O)cc3)C2)cn1 [Example 10.8]
Return: 740

Enquiry: Now the same for "CCOc1ccc(OC2CN(c3ccc([C@H](C)NC(=O)N(C)CCOC)cc3)C2)cc1"
Return: 1390

Enquiry: Now the same for "CC(=O)N[C@@H](C)c1ccc(N2CC(Oc3ccnc(C)n3)C2)cc1"
Return: 980

Enquiry: Now the same for "CCOc1ccc(OC2CN(c3ccc([C@H](C)NC(=O)C4(C(F)(F)F)CC4)cc3)C2)cc1"
Return: 410

Enquiry: Now the same for "CCOc1ccc(OC2CN(c3ccc([C@H](C)NC(=O)C4CC=CC4)cc3)C2)cc1"
Return: 70

---

- Subject Of Test: human ACC2 (Homo sapiens)
- Construct: made in house; host or cells: insect cells (baculoviral expression system)
- Assay Overview: ACC2 assay, spectrophotometric 384 well assay (NADH-linked, coupled lactate dehydrogenase/pyruvate kinase)
- Type: biochemical
- Particulars: ACC2 assay; human ACC2 construct lacking 128 N-terminal amino acids; 25° C., 340 nm, 15 minutes; read-out: IC50
- Description: Spectrophotometric 384 Well Assay Malonyl CoA formation by acetyl CoA carboxylases is stoichometrically linked to the consumption of ATP. ACC2 activity is measured in a NADH-linked kinetic method measuring ADP generated during the ACC reaction using a coupled lactate dehydrogenase/pyruvate kinase reaction. For biological testing, a human ACC2 construct which lacks the 128 amino acids at the N-terminus for increased solubility (nt 385-6966 in Genbank entry AJ575592) is cloned. […]
IC50 values for the compounds below.
Response body: numeric value in nM, unit text excluded.

Worked cases, answers included:
- Compound: "CC(=O)N[C@@H](C)c1ccc(N2CC(Oc3ccc(C(C)(C)C)cc3)C2)cc1 [Example 6.1]"
  Unit Label: "nM"
  IC50: 260
- Compound: "COc1ccc(OC2CN(c3ccc([C@H](C)NC(C)=O)cc3)C2)c(F)c1F [Example 10.18]"
  Unit Label: "nM"
  IC50: 560
- Compound: "CCOc1ccc(OC2CN(c3ccc([C@H](C)NC(=O)c4cnco4)cc3)C2)cc1 [Example 1.37]"
  Unit Label: "nM"
  IC50: 170
- Compound: "CCOc1ccc(OC2CN(c3ccc([C@H](C)NC(=O)c4cc(=O)[nH]cn4)cc3)C2)cc1 [Example 1.45]"
  Unit Label: "nM"
  IC50: 2010
- Compound: "CCOc1ccc(OC2CN(c3ccc([C@H](C)NC(=O)c4oc(C)nc4C)cc3)C2)cc1 [Example 1.39]"
  Unit Label: "nM"
  IC50: 2250
- Compound: "CC(=O)N[C@@H](C)c1ccc(N2CC(Oc3cccc(N4CCOCC4)n3)C2)cc1 [Example 12.15]"
  Unit Label: "nM"
  IC50: 830
- Compound: "COc1ccc(OC2CN(c3ccc([C@H](C)NC(C)=O)cc3)C2)c(F)c1 [Example 10.4]"
  Unit Label: "nM"
  IC50: 280
- Compound: "CCOc1ccc(OC2CN(c3ccc([C@H](C)NC(=O)C4(C#N)CC4)cc3)C2)cc1 [Example 1.18]"
  Unit Label: "nM"
  IC50: 340

Enquiry: Please report the recorded IC50 for CC(=O)N[C@@H](C)c1ccc(N2CC(Oc3ccc(-n4cccc4)cc3Cl)C2)cc1 [Example 10.3] .
Return: 910

Enquiry: Now the same for CC(=O)NC(C)c1ccc(N2CC(Oc3ccnc(OCC(F)F)c3)C2)cc1 (centres unmarked) [Example 11.6]
Return: 150

Enquiry: Now the same for CCOc1ccc(OC2CN(c3ccc([C@H](C)NC(=O)N(C)CC)cc3)C2)cc1 [Example 4.9]
Return: 860
